Data provenance: paper PMC4931022

Molecular target: KDM5C (Homo sapiens)
Construct: KDM5C1–765 was produced as an N-terminally His6-tagged protein in Sf9 cells; His6 (N); made in house; host or cells: Sf9 cells (provided by the Structural Genomics Consortium)
Sequence (P41229 1-765): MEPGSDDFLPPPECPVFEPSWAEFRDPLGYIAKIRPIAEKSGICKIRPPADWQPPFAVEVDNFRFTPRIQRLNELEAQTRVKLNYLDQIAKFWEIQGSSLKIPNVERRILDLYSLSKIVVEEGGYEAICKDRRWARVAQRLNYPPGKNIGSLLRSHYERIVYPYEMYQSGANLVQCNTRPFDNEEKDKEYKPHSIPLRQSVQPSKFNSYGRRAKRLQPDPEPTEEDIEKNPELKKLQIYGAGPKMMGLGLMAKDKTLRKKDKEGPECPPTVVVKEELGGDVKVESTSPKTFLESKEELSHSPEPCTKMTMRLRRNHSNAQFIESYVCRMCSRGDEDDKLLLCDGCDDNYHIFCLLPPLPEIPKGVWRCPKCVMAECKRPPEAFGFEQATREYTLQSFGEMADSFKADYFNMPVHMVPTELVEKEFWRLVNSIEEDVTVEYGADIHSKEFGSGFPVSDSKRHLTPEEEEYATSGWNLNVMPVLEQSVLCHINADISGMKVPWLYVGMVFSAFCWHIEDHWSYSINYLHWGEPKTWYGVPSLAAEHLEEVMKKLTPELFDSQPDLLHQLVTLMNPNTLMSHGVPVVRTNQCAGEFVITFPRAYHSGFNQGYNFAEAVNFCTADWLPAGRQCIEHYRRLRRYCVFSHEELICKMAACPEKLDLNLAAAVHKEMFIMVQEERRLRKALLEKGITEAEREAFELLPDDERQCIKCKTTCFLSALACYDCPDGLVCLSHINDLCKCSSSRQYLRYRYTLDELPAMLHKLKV
Assay: Formaldehyde dehydrogenase-coupled demethylation assay, KDM5C
Format: biochemical
Settings: KDM5C catalytic domain; apparent, preliminary; FDH/NAD+-coupled assay, 37 °C; mean±s.e.m., n=3
Description: Formaldehyde dehydrogenase-coupled assays. Preliminary kinetic parameters were determined by detection of the formaldehyde by-product of the demethylation reaction using a FDH (formaldehyde dehydrogenase-coupled)/NAD^+-coupled assay as previously described. […] The Km and Vmax values were calculated from the reaction rate during the linear phase of formaldehyde production, as determined by the slope of the fluorescence signal recorded.
Below, each of the substances is paired with its reported kcat value.

Substance	Target desc	kcat
ART-Kme3-QTARKSTGGKA [H3(1-15)K4me3, recognized histone H3 N-methylated-lysine peptide substrate for KDM5C, reference compound]	KDM5C (Homo sapiens)	67.1±10.3 × 10^−3 s^−1
ART-Rme2a-QTARKSTGGKA [H3(1-15)K4Rme2a, histone H3 fragment with asymmetric dimethylarginine replacing methylated K4]	KDM5C (Homo sapiens)	41.2±3.5 × 10^−3 s^−1
A-Rme2a-TKQTARKSTGGKA [H3(1-15)R2me2a, 'natural' histone H3 peptide asymmetrically dimethylated at R2]	KDM5C (Homo sapiens)	12.0±0.7 × 10^−3 s^−1
ART-Rme2s-QTARKSTGGKA [H3(1-15)K4Rme2s, histone H3 fragment with symmetric dimethylarginine replacing methylated K4]	KDM5C (Homo sapiens)	4.6±0.7 × 10^−3 s^−1

###

Biological target: KDM3A (Homo sapiens)
Construct: KDM3A515–1,317; His6 (N); made in house; host or cells: Sf9 cells
Sequence (Q9Y4C1 515-1317 limits assumed): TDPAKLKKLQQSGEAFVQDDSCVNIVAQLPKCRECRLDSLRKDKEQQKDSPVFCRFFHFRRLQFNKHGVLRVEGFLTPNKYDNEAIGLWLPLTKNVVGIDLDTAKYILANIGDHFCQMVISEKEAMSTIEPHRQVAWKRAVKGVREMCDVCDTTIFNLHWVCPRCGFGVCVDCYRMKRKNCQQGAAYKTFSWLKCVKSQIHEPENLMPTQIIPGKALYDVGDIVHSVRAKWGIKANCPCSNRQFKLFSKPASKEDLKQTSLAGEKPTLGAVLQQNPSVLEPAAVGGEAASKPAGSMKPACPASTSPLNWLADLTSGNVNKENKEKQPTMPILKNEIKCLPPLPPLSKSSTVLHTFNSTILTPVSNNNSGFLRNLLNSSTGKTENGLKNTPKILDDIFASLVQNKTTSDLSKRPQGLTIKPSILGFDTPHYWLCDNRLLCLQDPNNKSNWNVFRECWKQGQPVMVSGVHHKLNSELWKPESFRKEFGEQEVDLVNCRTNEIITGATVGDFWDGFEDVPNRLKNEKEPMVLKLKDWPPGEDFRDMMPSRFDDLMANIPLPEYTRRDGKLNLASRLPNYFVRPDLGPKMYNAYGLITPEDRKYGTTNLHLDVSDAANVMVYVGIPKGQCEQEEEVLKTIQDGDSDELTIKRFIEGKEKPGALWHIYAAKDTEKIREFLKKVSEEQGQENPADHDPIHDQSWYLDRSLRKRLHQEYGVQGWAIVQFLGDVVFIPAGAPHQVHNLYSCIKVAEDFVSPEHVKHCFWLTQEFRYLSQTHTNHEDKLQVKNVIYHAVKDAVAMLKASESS
Assay: MALDI MS activity assay, recombinant KDM3A catalytic domain
Assay type: biochemical
Conditions: KDM3A 2 μM, peptide 10 μM, 1 h, 37 °C, 2OG 100 μM, ascorbate 100 μM, Fe(II) 50 μM, 50 mM HEPES pH 7.5; MALDI-TOF MS, −14 Da shift
Value type: observed arginine demethylation activity

> print(dat)
                                  substance           target.desc  endpoint.result
1  A-Rme2a-TKQTARKSTGGKA [H3(1-15)R2me2a, 'natural' histone H3 peptide asymmetrically dimethylated at R2]  KDM3A (Homo sapiens)                −
2  SG-Rme2a-GKGGKGLGKGGA [H4(1-15)R3me2a, 'natural' histone H4 residues 1-15 peptide asymmetrically dimethylated at R3]  KDM3A (Homo sapiens)                −
3  KQLATKAA-Rme-KSAPAT [H3 (18–32) R26me, 'natural' histone H3 peptide monomethylated at R26]  KDM3A (Homo sapiens)                −
